Biological target: pooled human IgG (human IgG1,2,3 and 4)
proteins and their reported Enzyme Activity Endpoint Assay (purified): Fc
reported-metric: Enzyme Activity Endpoint Assay (purified): Fc (ng/µL)

1. PRT-354 (protein) MSQTEDSESLQRLRDIEDFQAEKKMQNVVYTKWLDGVDVKDHDFRKIVDGNEAYYATPLLNGRGFYDINKDFNRDSDKCAAAVAANMFHYWLDINRDNVDRFLRQNPEKHGIIELPDGQLKLSDFLNTYESDHGYRDKSKLFDFISENFNGPVWTDKLLDNYINGYAYNYKYGRTIEDPTKNTSKINFFKEVFNEKILTNNHSIRNQNELSVLLSEALYTGKAIGLSYGPAGLRHSLGHIISVWGADLDADGNVVAIYVTDSDDKKLTIGDERVGLKRYKISTDDENRLRLTAYEETHNTGGQIRGLWTLDTGKYAWADYFDKTEQTGTDQAEQ
213
2. PRT-374 (protein) MSQTEDSESLQRLRDIEDFQAEKKKQNVVYTKWLDGVDVKDHDFRKIVDGNEAYYATPLLNGRGFYDINKDFNRDNDKCAAAVAANMFHYWLDRNRDNVDRFLRQNPEKHGIIELPDGQLKLSDFLNTYESDDGYRDKSKLFDFISENFNGPVWTDKLLDNYINGYAYNYKYGRTIEDSTKNTSKINFFKEVFNEKILTNNHSIRNQNELSVLLSEALYTGKAIGLSYGPAGLRHSLGHIISVWGADLDADGNVVAIYVTDSDDKKLTIGDERVGLKRYKISTDDEGRLRLTAYEETHNTGGQIRGLWTLDTGKQAWADYFDKTEQTGTDQAEQ
536
